half-life reference
- assay_method_text: Single-dose pharmacokinetics in healthy volunteers under fasting and fed (high-fat breakfast) conditions, plasma concentrations by HPLC-MS, non-compartmental analysis
- Format: in vivo, human
- study_conditions: female, human, plasma, oral, only CYP2C19*1/*1 subjects, Fed, women, mean ± SD
Supply the numeric figure in h, leaving out any unit text.

>  <molecule>
COCCCOc1ccnc(C[S+]([O-])c2nc3ccccc3[nH]2)c1C (centres unmarked)

>  <half-life, h>
1.5

$$$$

Quick check: half-life of COc1ccnc(C[S+]([O-])c2nc3ccc(OC(F)F)cc3[nH]2)c1OC (centres unmarked) ?
1.1

###

- assay_method_text: Single-dose pharmacokinetics in healthy volunteers under fasting and fed (high-fat breakfast) conditions, plasma concentrations by HPLC-MS, non-compartmental analysis
- Type: in vivo, human
- study_conditions: male, human, plasma, po, Fed, men, single oral dose, mean ± SD
CL/F reference

>  <compound>
COc1ccnc(C[S+]([O-])c2nc3ccc(OC(F)F)cc3[nH]2)c1OC (stereo not drawn)

>  <CL/F>
2.5 mL/min/kg

$$$$
>  <compound>
COc1ccc2[nH]c([S+]([O-])Cc3ncc(C)c(OC)c3C)nc2c1 (stereo not drawn)

>  <CL/F>
9.5 mL/min/kg

$$$$

Quick check: CL/F of COCCCOc1ccnc(C[S+]([O-])c2nc3ccccc3[nH]2)c1C (stereo not drawn) ?
5.17 mL/min/kg

###

half-life reference
- assay_method_text: Single-dose pharmacokinetics in healthy volunteers under fasting and fed (high-fat breakfast) conditions, plasma concentrations by HPLC-MS, non-compartmental analysis
- Type: in vivo, human
- study_conditions: both sexes, human, plasma, po, Fast, all subjects, single oral dose, mean ± SD
Supply the numeric figure in h, leaving out any unit text.

>  <molecule>
COc1ccnc(C[S+]([O-])c2nc3ccc(OC(F)F)cc3[nH]2)c1OC (centres unmarked)

>  <unit_abbrev>
h

>  <test_result>
1.3

$$$$

Quick check: half-life of COCCCOc1ccnc(C[S+]([O-])c2nc3ccccc3[nH]2)c1C (centres unmarked) ?
1.3

###

- assay_method_text: Single-dose pharmacokinetics in healthy volunteers under fasting and fed (high-fat breakfast) conditions, plasma concentrations by HPLC-MS, non-compartmental analysis
- Assay type: in vivo, human
- study_conditions: both sexes, human, plasma, oral, only CYP2C19*1/*1 subjects, Fed, men and women, mean ± SD
Vd/F reference

Solved cases (2 shown):
>  <molecule>
COc1ccc2[nH]c([S+]([O-])Cc3ncc(C)c(OC)c3C)nc2c1 (stereo not drawn)

>  <Vd/F>
0.77 L/kg

$$$$
>  <molecule>
COc1ccnc(C[S+]([O-])c2nc3ccc(OC(F)F)cc3[nH]2)c1OC (stereo not drawn)

>  <Vd/F>
0.24 L/kg

$$$$

// switching to the query molecule
Quick check: Vd/F of COCCCOc1ccnc(C[S+]([O-])c2nc3ccccc3[nH]2)c1C (stereo not drawn) ?
0.92 L/kg

###

CL/F reference
- assay_method_text: Single-dose pharmacokinetics in healthy volunteers under fasting and fed (high-fat breakfast) conditions, plasma concentrations by HPLC-MS, non-compartmental analysis
- Assay type: in vivo, human
- study_conditions: female, human, plasma, oral, only CYP2C19*1/*1 subjects, Fed, women, mean ± SD
- Method: The bioequivalence clinical trials were phase I, randomized, open-label, crossover, single-centre, with two periods separated by a 7-day washout stage. Subjects were randomised to one of the two treatment sequences, RT or TR where R was the reference formulation and T was the test formulation. […] Sample processing, genotyping for CYP2C19 and drug quantification were performed according to Román et al. […] The values of pharmacokinetic parameters were expressed as mean ± standard deviation.
Answer with the figure and its unit, nothing else.

>  <compound>
COCCCOc1ccnc(C[S+]([O-])c2nc3ccccc3[nH]2)c1C (stereo not drawn) [Rabeprazole, rabeprazole]

>  <CL/F>
7.5 mL/min/kg

$$$$
>  <compound>
COc1ccnc(C[S+]([O-])c2nc3ccc(OC(F)F)cc3[nH]2)c1OC (stereo not drawn) [Pantoprazole, pantoprazole]

>  <CL/F>
2.83 mL/min/kg

$$$$

// switching to the query compound
Quick check: CL/F of COc1ccc2[nH]c([S+]([O-])Cc3ncc(C)c(OC)c3C)nc2c1 (stereo not drawn) [Omeprazole, omeprazole] ?
9.5 mL/min/kg

###

- assay_method_text: Single-dose pharmacokinetics in healthy volunteers under fasting and fed (high-fat breakfast) conditions, plasma concentrations by HPLC-MS, non-compartmental analysis
- Type: in vivo, human
- study_conditions: both sexes, human, plasma, oral, only CYP2C19*1/*1 subjects, Fast, men and women, mean ± SD
- Protocol: The bioequivalence clinical trials were phase I, randomized, open-label, crossover, single-centre, with two periods separated by a 7-day washout stage. Subjects were randomised to one of the two treatment sequences, RT or TR where R was the reference formulation and T was the test formulation. […] Sample processing, genotyping for CYP2C19 and drug quantification were performed according to Román et al. […] The values of pharmacokinetic parameters were expressed as mean ± standard deviation.
endpoint_name: half-life (h)
Supply the numeric figure in h, leaving out any unit text.

Solved cases (2 shown):
>  <compound>
COc1ccnc(C[S+]([O-])c2nc3ccc(OC(F)F)cc3[nH]2)c1OC (stereo not drawn) [Pantoprazole, pantoprazole]

>  <half-life / h>
1.2

$$$$
>  <compound>
COCCCOc1ccnc(C[S+]([O-])c2nc3ccccc3[nH]2)c1C (stereo not drawn) [Rabeprazole, rabeprazole]

>  <half-life / h>
1.3

$$$$

// switching to the query compound
Quick check: half-life of COc1ccc2[nH]c([S+]([O-])Cc3ncc(C)c(OC)c3C)nc2c1 (stereo not drawn) [Omeprazole, omeprazole] ?
1

###

- assay_method_text: Single-dose pharmacokinetics in healthy volunteers under fasting and fed (high-fat breakfast) conditions, plasma concentrations by HPLC-MS, non-compartmental analysis
- Type: in vivo, human
- study_conditions: female, human, plasma, po, Fed, women, single oral dose, mean ± SD
endpoint_name: AUC(0-inf) (ng·h/mL)
Supply the numeric figure in ng·h/mL, leaving out any unit text.

Solved cases (2 shown):
>  <molecule>
COc1ccc2[nH]c([S+]([O-])Cc3ncc(C)c(OC)c3C)nc2c1 (stereo not drawn)

>  <test_result>
1720

$$$$
>  <molecule>
COCCCOc1ccnc(C[S+]([O-])c2nc3ccccc3[nH]2)c1C (stereo not drawn)

>  <test_result>
1050

$$$$

Quick check: AUC(0-inf) of COc1ccnc(C[S+]([O-])c2nc3ccc(OC(F)F)cc3[nH]2)c1OC (stereo not drawn) ?
4660

###

- assay_method_text: Single-dose pharmacokinetics in healthy volunteers under fasting and fed (high-fat breakfast) conditions, plasma concentrations by HPLC-MS, non-compartmental analysis
- Assay type: in vivo, human
- study_conditions: male, human, plasma, po, Fed, men, single oral dose, mean ± SD; read-out: Cmax
endpoint_name: Cmax (ng/mL)
Supply the numeric figure in ng/mL, leaving out any unit text.

Solved cases (2 shown):
>  <compound>
COc1ccc2[nH]c([S+]([O-])Cc3ncc(C)c(OC)c3C)nc2c1 (stereo not drawn)

>  <test_result>
725

$$$$
>  <compound>
COc1ccnc(C[S+]([O-])c2nc3ccc(OC(F)F)cc3[nH]2)c1OC (stereo not drawn)

>  <test_result>
2590

$$$$

// switching to the query compound
Quick check: Cmax of COCCCOc1ccnc(C[S+]([O-])c2nc3ccccc3[nH]2)c1C (stereo not drawn) ?
635

###

- assay_method_text: Single-dose pharmacokinetics in healthy volunteers under fasting and fed (high-fat breakfast) conditions, plasma concentrations by HPLC-MS, non-compartmental analysis
- Type: in vivo, human
- study_conditions: female, human, plasma, oral, only CYP2C19*1/*1 subjects, Fast, women, mean ± SD; read-out: Tmax
endpoint_name: Tmax (h)
Supply the numeric figure in h, leaving out any unit text.

Quick check: Tmax of COCCCOc1ccnc(C[S+]([O-])c2nc3ccccc3[nH]2)c1C (centres unmarked) ?
3.8

Quick check: Tmax of COc1ccnc(C[S+]([O-])c2nc3ccc(OC(F)F)cc3[nH]2)c1OC (centres unmarked) ?
2.9

###

Cmax reference
- assay_method_text: Single-dose pharmacokinetics in healthy volunteers under fasting and fed (high-fat breakfast) conditions, plasma concentrations by HPLC-MS, non-compartmental analysis
- Format: in vivo, human
- study_conditions: female, human, plasma, oral, only CYP2C19*1/*1 subjects, Fast, women, mean ± SD; read-out: Cmax
Supply the numeric figure in ng/mL, leaving out any unit text.

>  <compound>
COCCCOc1ccnc(C[S+]([O-])c2nc3ccccc3[nH]2)c1C (centres unmarked)

>  <Cmax / ng/mL>
560

$$$$

// switching to the query compound
Quick check: Cmax of COc1ccnc(C[S+]([O-])c2nc3ccc(OC(F)F)cc3[nH]2)c1OC (centres unmarked) ?
3230

###

Cmax reference
- assay_method_text: Single-dose pharmacokinetics in healthy volunteers under fasting and fed (high-fat breakfast) conditions, plasma concentrations by HPLC-MS, non-compartmental analysis
- Assay type: in vivo, human
- study_conditions: male, human, plasma, oral, only CYP2C19*1/*1 subjects, Fed, men, mean ± SD; read-out: Cmax

>  <molecule>
COCCCOc1ccnc(C[S+]([O-])c2nc3ccccc3[nH]2)c1C (centres unmarked)

>  <Cmax>
572 ng/mL

$$$$

Quick check: Cmax of COc1ccnc(C[S+]([O-])c2nc3ccc(OC(F)F)cc3[nH]2)c1OC (centres unmarked) ?
2560 ng/mL
